This collection of values is drawn from patent US20230021483A1.

System: preferentially upregulated genes in LV, SP, LN
test details: Z-score-based differential gene expression analysis (adjuvant group- or adjuvant-associated genes, 40 module mapping, TargetMine annotation)
Type: in vivo, C57BL/6 mice
study conditions: ID, LV, sample x1
attribute measured: H2-T10///H2-T22///H2-T9 1449875_s_at (Group G1, Modules 20)

>>> measured_result("Cc1ccc2c(=O)c3cccc(CC(=O)O)c3oc2c1C [DMXAA, 5,6-dimethylxanthenone-4-acetic acid]")
1.27
>>> measured_result("Nc1nc2c(ncn2[C@@H]2O[C@@H]3COP(=O)(O)O[C@H]4[C@@H](O)[C@H](n5cnc6c(N)ncnc65)O[C@@H]4COP(=O)(O)O[C@@H]2[C@@H]3O)c(=O)[nH]1 [cGAMP, Cyclic [G(2′,5′)pA(3′,5′)p]]")
2.29
>>> measured_result("Nc1nc2c(ncn2[C@@H]2O[C@@H]3COP(=O)(O)O[C@H]4[C@@H](O)[C@H](n5cnc6c(=O)[nH]c(N)nc65)O[C@@H]4COP(=O)(O)O[C@H]3[C@H]2O)c(=O)[nH]1 [cdiGMP, Cyclic diguanylate monophosphate]")
1.07
>>> measured_result("CCOCc1nc2c(N)nc3ccccc3c2n1CC(C)(C)O [R848]")
2.05
